Experiment: probe aDKK1 binding to arrayed compounds – biochemical, biotinylated probe, 635/667 nm fluorescence, primary screen (AID 1099);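 further: score merges 667nm spot fluorescence with signal to noise across triplicate slides; reference of the scale not given here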
Settings: small-molecule microarray, higher = more signal
endpoint-label: composite z-score
Answers are plain numbers.

[[record]]
compound = "C=CCN1C(=O)[C@@]2(O[C@@H](CCO)[C@H]([Si](C)(C)c3ccc(OC)cc3)[C@H]2C)c2cc(NC(C)=O)ccc21"
quantitative_readout = -0.155

[[record]]
compound = "OCCCc1cc[n+](Cc2cccc(OC(F)(F)F)c2)cc1"
quantitative_readout = 0.237

[[record]]
compound = "COC(=O)[C@@]1(Cc2ccc(OC)cc2)[C@H]2c3cc(C(=O)N4CCCC4)n(C[C@H](O)CO)c3C[C@H]2CN1C(=O)c1ccccc1"
quantitative_readout = 0.642


List reported composite z-score for each of these compounds:
1. COC(=O)[C@@]1(Cc2ccc(F)cc2)[C@H]2c3cc(C(=O)N4CCCC4)n(CCc4ccc(OC)c(Br)c4)c3C[C@H]2CN1C(=O)c1ccccc1
2. [N-]=[N+]=NCc1ccccc1[C@@H]1OC(c2ccc(OCCCO)cc2)=N[C@]1(Cc1ccccc1)C(=O)O
3. O=C(NCCN1CCOCC1)[C@@H]1c2ccccc2C(=O)N(Cc2cc(F)cc(C(F)(F)F)c2)[C@H]1c1ccc(CO)cc1
4. O=C1C2C=CC(C(O)c3ccc(B(O)O)cc3)N(Nc3ccc([N+](=O)[O-])cc3)C2C(=O)N1c1ccccc1 (configuration not stated)

[out]
1: 1.55; 2: 0.175; 3: -0.469; 4: 0.627

* * *

Test system: PRMT1 (protein arginine N-methyltransferase 1)
Assay: small molecules binding arginine methyltransferase PRMT1 – biochemical, small-molecule microarray, 635 nm fluorescence, primary screen (AID 1088);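 further: binding of Prmt1 protein to compounds spotted on small-molecule microarray slides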
Conditions: higher = more signal
endpoint-label: composite z-score
Answers are plain numbers.

Sample answers from the record:
[[record]]
compound = "CO[C@H]1O[C@H](CO)[C@@H](OC(=O)Nc2ccccc2-c2ccccc2)[C@H](OC(=O)Nc2ccccc2-c2ccccc2)[C@H]1OC(=O)Nc1ccccc1-c1ccccc1"
quantitative_readout = 1.54

[[record]]
compound = "CCCC[C@H]1C[C@@H]1[C@@H]1N(P(=O)(c2ccccc2)c2ccccc2)[C@](CO)(c2ccccc2)CC12CC2"
quantitative_readout = -0.153

[[record]]
compound = "Cc1ccc(S[C@]2(C(=O)NCC(F)(F)F)CC(=O)N(C3Cc4ccccc4C3)[C@@H]2c2ccc(CO)cc2I)cc1"
quantitative_readout = -0.535

[[record]]
compound = "C=CCN1C(=O)[C@@]2(O[C@@H](CCO)[C@H]([Si](C)(C)c3ccc(OC)cc3)[C@H]2C)c2cc(N3C(=O)COc4ccccc43)ccc21"
quantitative_readout = 1.45

[[record]]
compound = "COCCOC(=O)N1C(=O)[C@@]2(c3ccccc31)[C@H](C(=O)N1CCCCCCC1)[C@H]1C(=O)O[C@H](c3ccccc3)[C@H](c3ccccc3)N1[C@@H]2c1ccccc1OCCO"
quantitative_readout = 1.53


List reported composite z-score for each of these compounds:
1. CCCC[C@H]1OB(O)C[C@H]2C1=C(COc1ccccc1)C[C@H]1C(=O)N(Cc3ccccc3)C(=O)[C@H]12
2. C=CCN1C(=O)[C@]2(COC(c3ccc(OCCCO)cc3)=N2)Cc2ccccc21

[out]
[0.385, 1.36]

List reported composite z-score for each of these compounds:
1. C=C(CCCC)/C(=C/C[C@H](OC(C)=O)c1ccc(CO)o1)c1cc(C(=O)OC)ccc1OC
2. C#C[C@H](O[Si](C#CCCCCCC)(C(C)C)C(C)C)c1ccccc1
3. COC(=O)[C@@]1(Cc2ccc(OC)cc2)[C@H]2c3cc(C(=O)N4CCCC4)n(CCN4CCOCC4)c3C[C@H]2CN1C(=O)c1ccccc1
4. O=C1C2C=CC(C(O)c3cccc4ccccc34)N(n3cnnc3)C2C(=O)N1Cc1ccccc1 (centres undefined)
5. O=C(CS)NCCCCCCNC(=O)[C@H]1C[C@H]2C(=O)N3CCC[C@H]3C(=O)N2[C@H]1c1ccc(O)cc1
6. CN1C(=O)C2C(C1=O)C1C=C(c3ccc(CO)cc3)C2C(C2CC2)N1Cc1sc2ccccc2c1Cl (centres undefined)
7. C=C(/C(=C/C[C@@H](OC(C)=O)c1ccc(CO)o1)c1cnc2ccccc2c1)C(C)C
8. COc1ccc([Si](C)(C)[C@@H]2[C@@H](CC(=O)N3Cc4ccccc4C[C@H]3CO)O[C@]3(C(=O)N(Cc4cccc(N5C(=O)COc6ccccc65)c4)c4ccccc43)[C@H]2C)cc1

[out]
1: 1.56; 2: 0.631; 3: 0.57; 4: -0.117; 5: 1.42; 6: 1.55; 7: 1.55; 8: 1.49

List reported composite z-score for each of these compounds:
1. CCCCN1CC=CC23O[C@@H]4C=CCCOC(=O)C4[C@H]2C(=O)N(CCCO)[C@@H]3C1=O (some centres undefined)
2. CC(C)C[C@@H]1NC(=O)[C@@H]2C[C@H](C(=O)NCCCCN(C)C)[C@H](c3ccc(O)cc3)N2C1=O

[out]
-0.253
0.577

List reported composite z-score for each of these compounds:
1. COCCn1c(C(=O)N2CCCC2)cc2c1C[C@H]1CN(C(=O)c3ccccc3)[C@@](Cc3ccc(OC)cc3)(C(=O)OC)[C@@H]21
2. O=C1C2C=CC(C(O)c3ccc(Br)cc3)N(n3cnnc3)C2C(=O)N1Cc1ccccc1 (centres undefined)
3. CCOC(=O)C1=CC[C@@H](c2ccccc2)N(S(=O)(=O)c2ccc(C)cc2)[C@H]1c1ccc(C#N)cc1
4. CN(C)CCCCCCNC(=O)[C@@H]1C[C@@H]2C(=O)NCC(=O)N2[C@@H]1c1cccc(OCCO)c1
5. C=CCOC(=O)[C@@H]1[C@H]2C(=O)O[C@H](c3ccccc3)[C@H](c3ccccc3)N2[C@H](c2ccc(OCCOC(=O)[C@H]3C[C@H]4C(=O)N[C@@H](CCCC[N+](C)(C)C)C(=O)N4[C@H]3c3cccc(OCCO)c3)cc2)[C@@]12C(=O)Nc1ccc(I)cc12
6. CC(C)[C@H]1COC(=O)N1C(=O)[C@H]1[C@@H](c2ccccc2)N(c2ccccc2)O[C@@H]1C

[out]
1. 0.0027
2. 1.56
3. 0.852
4. 1.53
5. 1.59
6. 0.842

List reported composite z-score for each of these compounds:
1. CC(C)OC(=O)C1=CCC(c2cccc(Cl)c2)O1 (centres undefined)
2. O=C1O[C@@H](c2ccccc2)[C@@H](c2ccccc2)N2[C@@H](c3ccccc3OCCO)[C@]3(C(=O)Nc4ccc(C#CC5(O)CCCCCC5)cc43)[C@@H](C(=O)NC[C@H](O)c3ccccc3)[C@H]12
3. CCN(CC)c1ccc(N2CC=CC34O[C@@H]5C=CCOC(=O)[C@@H]5[C@H]3C(=O)N(CCCCCO)[C@@H]4C2=O)cc1 (some centres undefined)
4. [N-]=[N+]=NCc1ccccc1[C@H]1OC(c2ccc(OCCCO)cc2)=N[C@@]1(Cc1ccccc1)C(=O)NCC(O)CO (some centres undefined)
5. CCN(CC)c1ccc(N2CC=CC34O[C@@H]5/C=C\CCC(C)OC(=O)C5[C@H]3C(=O)N(CCCCCCO)[C@@H]4C2=O)cc1 (some centres undefined)

[out]
0.559
1.55
-0.456
1.25
-0.661

[in] Recall the recorded composite z-score for `Cc1ccc(S[C@]2(C(=O)NCCCN(C)C)CC(=O)N(Cc3ccccc3)[C@@H]2c2ccc(CO)cc2)cc1` with PRMT1 (protein arginine N-methyltransferase 1) and state it.
[out] 1.25

// data source = PubChem BioAssay
